target: DNASE2B; experiment: pooled miR-30 sensor sort-seq; sequence = guide strand; conditions: shRNA; further: reference of the scale not given here
Each entry below lists one item and its recorded sensor-assay potency score (higher = more potent) value.
assay_metric: sensor-assay potency score (higher = more potent)

{"columns": ["seq", "tested_target", "data_value"],
 "data": [
  ["TAGGTCTCCAATACATGTCCAG", "DNASE2B", -0.704],
  ["TTGGTGTGTCCATACTTTCTGC", "DNASE2B", -0.698],
  ["TCTAGTTGTAGAGTCTAGGTAC", "DNASE2B", 0.705],
  ["TTGAACTCTGTTCCACAGCAGT", "DNASE2B", -0.963],
  ["TTGTATATTAGATAGGCTGTGT", "DNASE2B", 0.0611]
]}
